Ref: patent US20240207263A1

Quick list: IC50 per entry.
# TESTED_ON: UniProt:P48736
# MEASUREMENT_PROTOCOL: PI3K biochemical potency assay (Assay c), PIK3Cγ

1. CC(C)n1c(=O)n(C)c2nnc3ccc(-c4ccc([C@@H](C)OCCN5CC[C@@H](OC6CC6)C5)nc4)cc3c21	> 10 µM
2. C[C@@H](OCCN1CCC2(CC2)C1)c1ccc(-c2ccc3nnc4c(c3c2)n(C2CCOCC2)c(=O)n4C)cn1	> 10 µM

Observed IC50 on UniProt:P48736, entry CC(C)n1c(=O)n(C)c2nnc3ccc(-c4ccc([C@@H](C)OCCN5CCC6(CC6)C5)nc4)cc3c21 , equals > 10 µM

---

# TESTED_ON: ATM (Homo sapiens (Human))
# Sequence (Q13315 whole entry, looked up): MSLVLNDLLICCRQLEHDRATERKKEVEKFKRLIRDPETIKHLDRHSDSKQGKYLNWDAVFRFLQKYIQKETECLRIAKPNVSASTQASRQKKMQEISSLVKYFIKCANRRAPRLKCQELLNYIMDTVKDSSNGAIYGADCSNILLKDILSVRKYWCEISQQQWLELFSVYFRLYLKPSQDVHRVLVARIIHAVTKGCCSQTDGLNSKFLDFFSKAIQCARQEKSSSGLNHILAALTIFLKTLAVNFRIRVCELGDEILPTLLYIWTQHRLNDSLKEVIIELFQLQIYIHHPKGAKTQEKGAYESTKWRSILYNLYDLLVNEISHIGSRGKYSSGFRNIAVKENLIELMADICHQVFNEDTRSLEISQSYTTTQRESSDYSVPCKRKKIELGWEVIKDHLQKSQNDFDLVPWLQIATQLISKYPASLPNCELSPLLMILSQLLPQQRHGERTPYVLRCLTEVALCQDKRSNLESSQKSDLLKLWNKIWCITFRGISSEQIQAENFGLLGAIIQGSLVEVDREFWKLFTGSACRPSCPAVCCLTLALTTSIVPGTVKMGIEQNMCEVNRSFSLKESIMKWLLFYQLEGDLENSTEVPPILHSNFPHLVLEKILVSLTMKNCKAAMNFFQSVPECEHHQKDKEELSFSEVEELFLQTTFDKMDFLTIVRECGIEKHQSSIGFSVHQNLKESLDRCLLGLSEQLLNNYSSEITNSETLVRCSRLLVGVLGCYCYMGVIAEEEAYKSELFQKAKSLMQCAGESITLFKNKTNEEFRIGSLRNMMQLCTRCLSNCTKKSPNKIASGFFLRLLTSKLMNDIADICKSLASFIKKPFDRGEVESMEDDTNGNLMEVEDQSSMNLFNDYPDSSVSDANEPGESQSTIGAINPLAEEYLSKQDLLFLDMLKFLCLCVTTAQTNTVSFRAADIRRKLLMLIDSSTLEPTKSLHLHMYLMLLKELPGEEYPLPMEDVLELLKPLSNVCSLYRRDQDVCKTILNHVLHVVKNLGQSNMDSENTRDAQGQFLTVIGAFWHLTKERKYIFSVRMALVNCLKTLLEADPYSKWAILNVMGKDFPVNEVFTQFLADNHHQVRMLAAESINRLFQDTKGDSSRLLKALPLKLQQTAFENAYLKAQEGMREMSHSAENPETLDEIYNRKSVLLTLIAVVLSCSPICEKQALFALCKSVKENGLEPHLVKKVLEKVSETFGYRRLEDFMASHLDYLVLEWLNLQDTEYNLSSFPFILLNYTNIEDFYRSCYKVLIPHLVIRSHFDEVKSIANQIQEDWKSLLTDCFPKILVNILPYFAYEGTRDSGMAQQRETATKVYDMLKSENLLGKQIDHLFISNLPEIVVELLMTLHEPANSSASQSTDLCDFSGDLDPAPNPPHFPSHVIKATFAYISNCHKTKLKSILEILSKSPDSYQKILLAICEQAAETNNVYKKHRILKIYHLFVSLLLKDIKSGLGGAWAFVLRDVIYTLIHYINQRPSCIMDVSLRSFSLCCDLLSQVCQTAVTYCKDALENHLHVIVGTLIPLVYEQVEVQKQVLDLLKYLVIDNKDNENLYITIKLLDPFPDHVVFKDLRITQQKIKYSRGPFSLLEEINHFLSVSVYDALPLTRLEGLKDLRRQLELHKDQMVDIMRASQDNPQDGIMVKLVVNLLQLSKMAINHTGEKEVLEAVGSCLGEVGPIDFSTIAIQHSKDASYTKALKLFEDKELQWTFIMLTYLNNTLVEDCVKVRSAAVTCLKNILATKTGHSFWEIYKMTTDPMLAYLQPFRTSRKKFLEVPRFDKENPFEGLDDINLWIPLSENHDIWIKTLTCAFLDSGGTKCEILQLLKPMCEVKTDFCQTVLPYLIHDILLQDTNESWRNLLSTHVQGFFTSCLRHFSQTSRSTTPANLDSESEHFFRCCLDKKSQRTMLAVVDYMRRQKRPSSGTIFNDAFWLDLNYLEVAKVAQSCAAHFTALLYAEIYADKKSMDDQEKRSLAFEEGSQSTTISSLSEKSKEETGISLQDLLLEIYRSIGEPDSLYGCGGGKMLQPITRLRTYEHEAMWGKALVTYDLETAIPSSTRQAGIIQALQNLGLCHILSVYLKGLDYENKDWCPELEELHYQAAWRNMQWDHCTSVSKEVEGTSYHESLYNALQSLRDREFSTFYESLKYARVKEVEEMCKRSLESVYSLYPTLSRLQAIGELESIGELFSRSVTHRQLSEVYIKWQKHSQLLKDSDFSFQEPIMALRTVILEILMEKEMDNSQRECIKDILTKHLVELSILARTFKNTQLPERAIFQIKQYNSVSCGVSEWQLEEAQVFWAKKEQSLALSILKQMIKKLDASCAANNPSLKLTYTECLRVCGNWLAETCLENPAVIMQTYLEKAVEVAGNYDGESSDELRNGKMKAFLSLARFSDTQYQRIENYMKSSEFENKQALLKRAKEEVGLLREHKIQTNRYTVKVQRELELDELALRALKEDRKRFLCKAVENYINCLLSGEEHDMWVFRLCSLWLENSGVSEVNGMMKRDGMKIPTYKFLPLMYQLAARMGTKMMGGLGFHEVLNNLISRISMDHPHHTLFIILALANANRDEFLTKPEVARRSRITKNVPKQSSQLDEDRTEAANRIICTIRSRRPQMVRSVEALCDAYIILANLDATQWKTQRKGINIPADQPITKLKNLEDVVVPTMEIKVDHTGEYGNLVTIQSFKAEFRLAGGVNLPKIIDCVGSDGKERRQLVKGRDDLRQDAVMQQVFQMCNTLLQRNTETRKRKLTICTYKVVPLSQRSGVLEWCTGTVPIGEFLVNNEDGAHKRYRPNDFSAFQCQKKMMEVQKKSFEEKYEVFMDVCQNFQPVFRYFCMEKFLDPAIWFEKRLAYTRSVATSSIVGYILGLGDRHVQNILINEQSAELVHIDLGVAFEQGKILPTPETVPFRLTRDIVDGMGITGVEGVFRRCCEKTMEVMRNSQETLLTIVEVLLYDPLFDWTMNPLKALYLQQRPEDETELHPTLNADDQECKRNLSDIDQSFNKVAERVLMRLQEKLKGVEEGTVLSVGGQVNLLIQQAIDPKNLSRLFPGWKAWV
# MEASUREMENT_PROTOCOL: biochemical
# Assay type: biochemical
# STATED_CONDITIONS: read-out: ATM IC50
READOUT_KIND: IC50 (nM)
The reply should be a number in nM, with the unit left off.

Observe how each entry below is paired with its result.
1) CC(COCc1ccc(-c2ccc3nnc4c(c3c2)n(C(C)C)c(=O)n4C)cn1)N1CC2CC2C1 (stereo not shown) [Example 16]	201
2) CC(C)n1c(=O)n(C)c2nnc3ccc(-c4ccc(COCCN5CCC6(CCC6)CC5)nc4)cc3c21 [Example 49]	2.8
3) CC(OCCN1CC2C(C1)C2(F)F)c1ccc(-c2ccc3nnc4c(c3c2)n(C(C)C)c(=O)n4C)cn1 (stereo in doubt) [Example 71]	9.3
4) CO[C@H]1CCN(CCO[C@H](C)c2ccc(-c3ccc4nnc5c(c4c3)n(C(C)C)c(=O)n5C)cn2)C1 [Example 59]	8.3
5) CC(C)n1c(=O)n(C)c2nnc3cc(F)c(-c4ccc([C@@H](C)OCCN5CCC(C)(C#N)C5)nc4)cc3c21 (stereo partly shown) [Example 147]	23
6) CC(C)n1c(=O)n(C)c2nnc3ccc(-c4ccc(COC5CCN(C)C5)nc4)cc3c21 (stereo not shown) [Example 11]	123

Now consider the entry below.
Observed IC50 on ATM (Homo sapiens (Human)), entry CC(C)n1c(=O)n(C)c2nnc3ccc(-c4ccc(COCC5CCN(C)C5)nc4)cc3c21 (stereo not shown) [Example 20] , equals 51

---

# TESTED_ON: PIK3Cβ (p110β) (Homo sapiens (Human))
# Sequence (P42338 whole entry, looked up): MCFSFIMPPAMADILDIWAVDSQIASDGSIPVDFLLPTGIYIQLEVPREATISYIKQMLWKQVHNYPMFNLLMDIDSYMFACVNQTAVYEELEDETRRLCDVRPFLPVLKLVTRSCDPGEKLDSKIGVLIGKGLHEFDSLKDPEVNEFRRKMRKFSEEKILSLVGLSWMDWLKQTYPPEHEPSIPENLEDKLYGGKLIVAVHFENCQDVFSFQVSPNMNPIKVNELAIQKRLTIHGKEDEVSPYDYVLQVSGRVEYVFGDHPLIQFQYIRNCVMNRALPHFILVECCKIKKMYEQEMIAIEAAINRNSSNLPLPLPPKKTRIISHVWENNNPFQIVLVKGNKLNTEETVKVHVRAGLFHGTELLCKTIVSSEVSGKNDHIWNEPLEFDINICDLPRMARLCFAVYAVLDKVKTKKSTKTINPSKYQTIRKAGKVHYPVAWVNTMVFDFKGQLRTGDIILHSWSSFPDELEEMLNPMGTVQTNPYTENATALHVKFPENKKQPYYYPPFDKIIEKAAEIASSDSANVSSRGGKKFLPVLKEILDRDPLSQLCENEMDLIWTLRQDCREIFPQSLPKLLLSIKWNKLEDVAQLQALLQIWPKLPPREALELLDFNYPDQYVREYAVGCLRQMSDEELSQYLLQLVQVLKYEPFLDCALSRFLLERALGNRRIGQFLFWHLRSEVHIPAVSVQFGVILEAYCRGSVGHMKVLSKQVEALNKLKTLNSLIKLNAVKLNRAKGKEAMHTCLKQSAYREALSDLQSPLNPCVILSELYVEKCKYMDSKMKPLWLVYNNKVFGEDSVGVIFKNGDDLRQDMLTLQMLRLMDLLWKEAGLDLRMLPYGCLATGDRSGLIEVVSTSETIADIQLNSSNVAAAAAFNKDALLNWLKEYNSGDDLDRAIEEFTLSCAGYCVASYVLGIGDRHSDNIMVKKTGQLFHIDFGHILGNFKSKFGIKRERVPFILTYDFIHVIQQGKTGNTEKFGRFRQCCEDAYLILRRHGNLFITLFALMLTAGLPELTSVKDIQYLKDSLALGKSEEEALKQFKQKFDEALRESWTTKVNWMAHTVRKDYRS
# Sequence (P27986 whole entry partner, looked up): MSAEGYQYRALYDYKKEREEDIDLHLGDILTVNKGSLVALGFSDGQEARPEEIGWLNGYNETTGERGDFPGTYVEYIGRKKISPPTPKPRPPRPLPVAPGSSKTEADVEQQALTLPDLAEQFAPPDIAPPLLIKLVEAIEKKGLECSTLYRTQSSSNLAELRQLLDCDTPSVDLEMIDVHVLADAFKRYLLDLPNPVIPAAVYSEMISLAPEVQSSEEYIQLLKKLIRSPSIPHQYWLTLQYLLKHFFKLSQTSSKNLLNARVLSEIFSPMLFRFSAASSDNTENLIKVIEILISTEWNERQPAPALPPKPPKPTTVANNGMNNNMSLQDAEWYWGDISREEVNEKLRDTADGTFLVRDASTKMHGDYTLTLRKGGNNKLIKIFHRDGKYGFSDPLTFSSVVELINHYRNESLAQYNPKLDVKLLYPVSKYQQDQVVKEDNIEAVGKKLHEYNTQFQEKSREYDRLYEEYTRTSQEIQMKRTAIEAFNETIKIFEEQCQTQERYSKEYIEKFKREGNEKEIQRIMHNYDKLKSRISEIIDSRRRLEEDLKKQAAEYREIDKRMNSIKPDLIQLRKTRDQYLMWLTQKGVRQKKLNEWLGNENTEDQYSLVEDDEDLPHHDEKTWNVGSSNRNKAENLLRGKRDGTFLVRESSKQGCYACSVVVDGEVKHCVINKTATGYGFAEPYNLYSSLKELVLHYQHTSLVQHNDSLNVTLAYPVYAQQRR
# MEASUREMENT_PROTOCOL: PI3K biochemical potency assay (Assay c), PIK3Cβ
pIC50: −log10 of the molar value.
READOUT_KIND: pIC50

Observe how each entry below is paired with its result.
1. C[C@@H](OCCN1CCC2(CC2)C1)c1ccc(-c2ccc3nnc4c(c3c2)n(C2CCOCC2)c(=O)n4C)cn1	< 5.00
2. CC(C)n1c(=O)n(C)c2nnc3ccc(-c4ccc([C@@H](C)OCCN5CC[C@@H](OC6CC6)C5)nc4)cc3c21	< 5.00

Now consider the entry below.
The recorded pIC50 for CC(C)n1c(=O)n(C)c2nnc3ccc(-c4ccc([C@@H](C)OCCN5CCC6(CC6)C5)nc4)cc3c21 is < 5.00

---

# TESTED_ON: ATM (Homo sapiens (Human))
# MEASUREMENT_PROTOCOL: biochemical
# Format: biochemical
# STATED_CONDITIONS: read-out: ATM IC50
Quick list: log10 of IC50 per entry.
Values reflect log10 of reported IC50 (nM).

Observe how each entry below is paired with its result.
1) C[C@@H](OCCN1CCCCC1)c1ccc(-c2ccc3nnc4c(c3c2)n(C2CCOCC2)c(=O)n4C)cn1	1.04
2) CC(C)n1c(=O)n(C)c2nnc3ccc(-c4ccc(COCCN5CC(N(C)C)C5)nc4)cc3c21	1.89
3) CC(C)n1c(=O)n(C)c2nnc3ccc(-c4ccc([C@@H](C)OCCN5CC[C@@H](C)C5)nc4)cc3c21	0.68
4) CC(C)n1c(=O)n(C)c2nnc3ccc(-c4ccc(COCCN5CCN(C)CC5)nc4)cc3c21	2.48

Now consider the entry below.
The recorded log10 of IC50 for CC(C)n1c(=O)n(C)c2nnc3cc(F)c(-c4ccc(COCCN5CCC(C)(C)CC5)nc4)cc3c21 is 1.11
